Reference source for all entries: ChEMBL document CHEMBL3588788

ASSAY_NOTES: Cytotoxicity against human WI38 cells by MTT assay
Assay type: cell-based, WI-38
CONDITION_DETAILS: Homo sapiens, WI-38; read-out: IC50
MEASURED_PROPERTY: IC50

Answer with the recorded IC50 for the compound listed here: C=C[C@H]1CN2CC[C@H]1C[C@H]2[C@H](O)c1cc(CC[C@@H](C)[C@H]2CC[C@H]3[C@@H]4CC[C@@H]5C[C@H](OC(C)=O)CC[C@]5(C)[C@H]4C[C@H](OC(C)=O)[C@]23C)nc2ccccc12
4.06 µM

Answer with the recorded IC50 for the compound listed here: C=C[C@H]1CN2CC[C@H]1C[C@@H]2[C@@H](O)c1cc(CC[C@@H](C)[C@H]2CC[C@H]3[C@@H]4[C@H](OC(C)=O)C[C@@H]5C[C@H](OC(C)=O)CC[C@]5(C)[C@H]4C[C@H](OC(C)=O)[C@]23C)nc2ccc(OC)cc12
4.66 µM

====

System: Plasmodium falciparum
ASSAY_NOTES: Potency index, ratio of IC50 for QND to IC50 for test compound against Plasmodium falciparum 3D7 by parasite lactate dehydrogenase assay
Type: functional
Record form. Attribute: Ratio IC50. Fill in for each entry.
Please respond with just the number, no unit label.

Answer with the recorded Ratio IC50 for the compound listed here: C=C[C@H]1CN2CC[C@H]1C[C@@H]2[C@@H](O)c1cc(CC[C@@H](C)[C@H]2CC[C@H]3[C@@H]4[C@H](O)[C@H](O)[C@@H]5C[C@H](O)CC[C@]5(C)[C@H]4CC[C@]23C)nc2ccc(OC)cc12
1.1

Answer with the recorded Ratio IC50 for the compound listed here: C=C[C@H]1CN2CC[C@H]1C[C@@H]2[C@@H](O)c1cc(CC[C@@H](C)[C@H]2CC[C@H]3[C@@H]4[C@H](O)C[C@@H]5C[C@H](O)CC[C@]5(C)[C@H]4C[C@H](O)[C@]23C)nc2ccc(OC)cc12
0.3

Answer with the recorded Ratio IC50 for the compound listed here: C=C[C@H]1CN2CC[C@H]1C[C@@H]2[C@@H](O)c1cc(CC[C@@H](C)[C@H]2CC[C@H]3[C@@H]4C[C@H](O)[C@@H]5C[C@H](O)CC[C@]5(C)[C@H]4CC[C@]23C)nc2ccc(OC)cc12
1.6

Answer with the recorded Ratio IC50 for the compound listed here: C=C[C@H]1CN2CC[C@H]1C[C@@H]2[C@@H](O)c1cc(CC[C@@H](C)[C@H]2CC[C@H]3[C@@H]4CC[C@@H]5C[C@H](OC(C)=O)CC[C@]5(C)[C@H]4C[C@H](OC(C)=O)[C@]23C)nc2ccc(OC)cc12
1

====

Test system: Trypanosoma brucei brucei
ASSAY_NOTES: Potency index, ratio of IC50 for CN to IC50 for test compound against Trypanosoma brucei brucei Lister 427 bloodstream forms by microtiter plate based assay
Assay type: functional
Record form. Attribute: Ratio IC50. Fill in for each entry.

Answer with the recorded Ratio IC50 for the molecule listed here: C=C[C@H]1CN2CC[C@H]1C[C@@H]2[C@@H](O)c1cc(CC[C@@H](C)[C@H]2CC[C@H]3[C@@H]4[C@H](OC(C)=O)[C@H](OC(C)=O)[C@@H]5C[C@H](OC(C)=O)CC[C@]5(C)[C@H]4CC[C@]23C)nc2ccccc12
134.6

Answer with the recorded Ratio IC50 for the molecule listed here: C=C[C@H]1CN2CC[C@H]1C[C@@H]2[C@@H](O)c1cc(CC[C@@H](C)[C@H]2CC[C@H]3[C@@H]4[C@H](O)[C@H](O)[C@@H]5C[C@H](O)CC[C@]5(C)[C@H]4CC[C@]23C)nc2ccccc12
37.6

====

Record form. Attribute: IC50. Fill in for each entry.
ASSAY_NOTES: Cytotoxicity against human WI38 cells by MTT assay
Type: cell-based, WI-38
CONDITION_DETAILS: Homo sapiens, WI-38; read-out: IC50
Number only, in µM; omit the unit.

Answer with the recorded IC50 for the compound listed here: C=C[C@H]1CN2CC[C@H]1C[C@@H]2[C@@H](O)c1cc(CC[C@@H](C)[C@H]2CC[C@H]3[C@@H]4CC[C@@H]5C[C@H](O)CC[C@]5(C)[C@H]4C[C@H](O)[C@]23C)nc2ccccc12
2.98

Answer with the recorded IC50 for the compound listed here: C=C[C@H]1CN2CC[C@H]1C[C@H]2[C@H](O)c1cc(CC[C@@H](C)[C@H]2CC[C@H]3[C@@H]4[C@H](O)[C@H](O)[C@@H]5C[C@H](O)CC[C@]5(C)[C@H]4CC[C@]23C)nc2ccccc12
5.32

Answer with the recorded IC50 for the compound listed here: C=C[C@H]1CN2CC[C@H]1C[C@@H]2[C@@H](O)c1cc(CC[C@@H](C)[C@H]2CC[C@H]3[C@@H]4[C@H](O)[C@H](O)[C@@H]5C[C@H](O)CC[C@]5(C)[C@H]4CC[C@]23C)nc2ccccc12
5.68

Answer with the recorded IC50 for the compound listed here: C=C[C@H]1CN2CC[C@H]1C[C@H]2[C@H](O)c1cc(CC[C@@H](C)[C@H]2CC[C@H]3[C@@H]4C[C@H](O)[C@@H]5C[C@H](O)CC[C@]5(C)[C@H]4CC[C@]23C)nc2ccccc12
3.28

Answer with the recorded IC50 for the compound listed here: C=C[C@H]1CN2CC[C@H]1C[C@H]2[C@H](O)c1cc(CC[C@@H](C)[C@H]2CC[C@H]3[C@@H]4[C@H](OC(C)=O)[C@H](OC(C)=O)[C@@H]5C[C@H](OC(C)=O)CC[C@]5(C)[C@H]4CC[C@]23C)nc2ccccc12
3.75

Answer with the recorded IC50 for the compound listed here: C=C[C@H]1CN2CC[C@H]1C[C@@H]2[C@@H](O)c1cc(CC[C@@H](C)[C@H]2CC[C@H]3[C@@H]4C[C@H](OC(C)=O)[C@@H]5C[C@H](OC(C)=O)CC[C@]5(C)[C@H]4CC[C@]23C)nc2ccc(OC)cc12
4.49

====

ASSAY_NOTES: in vitro
CONDITION_DETAILS: human, WI38 cells
Description: Selectivity index, ratio of IC50 against human WI38 cells to IC50 for Trypanosoma brucei brucei Lister 427 bloodstream forms
MEASURED_PROPERTY: selectivity ratio
Please respond with just the number, no unit label.

Answer with the recorded selectivity ratio for the compound listed here: C=C[C@H]1CN2CC[C@H]1C[C@H]2[C@H](O)c1cc(CC[C@@H](C)[C@H]2CC[C@H]3[C@@H]4[C@H](O)C[C@@H]5C[C@H](O)CC[C@]5(C)[C@H]4C[C@H](O)[C@]23C)nc2ccccc12
4.6

Answer with the recorded selectivity ratio for the compound listed here: C=C[C@H]1CN2CC[C@H]1C[C@@H]2[C@@H](O)c1cc(CC[C@@H](C)[C@H]2CC[C@H]3[C@@H]4[C@H](O)[C@H](O)[C@@H]5C[C@H](O)CC[C@]5(C)[C@H]4CC[C@]23C)nc2ccccc12
3.1

Answer with the recorded selectivity ratio for the compound listed here: C=C[C@H]1CN2CC[C@H]1C[C@@H]2[C@@H](O)c1cc(CC[C@@H](C)[C@H]2CC[C@H]3[C@@H]4C[C@H](OC(C)=O)[C@@H]5C[C@H](OC(C)=O)CC[C@]5(C)[C@H]4CC[C@]23C)nc2ccccc12
6.6

Answer with the recorded selectivity ratio for the compound listed here: C=C[C@H]1CN2CC[C@H]1C[C@@H]2[C@@H](O)c1cc(CC[C@@H](C)[C@H]2CC[C@H]3[C@@H]4C[C@H](O)[C@@H]5C[C@H](O)CC[C@]5(C)[C@H]4CC[C@]23C)nc2ccccc12
7.6

Answer with the recorded selectivity ratio for the compound listed here: C=C[C@H]1CN2CC[C@H]1C[C@@H]2[C@@H](O)c1cc(CC[C@@H](C)[C@H]2CC[C@H]3[C@@H]4[C@H](O)C[C@@H]5C[C@H](O)CC[C@]5(C)[C@H]4C[C@H](O)[C@]23C)nc2ccccc12
5.2

Answer with the recorded selectivity ratio for the compound listed here: C=C[C@H]1CN2CC[C@H]1C[C@@H]2[C@@H](O)c1cc(CC[C@@H](C)[C@H]2CC[C@H]3[C@@H]4CC[C@@H]5C[C@H](OC(C)=O)CC[C@]5(C)[C@H]4C[C@H](OC(C)=O)[C@]23C)nc2ccc(OC)cc12
7.7

Answer with the recorded selectivity ratio for the compound listed here: C=C[C@H]1CN2CC[C@H]1C[C@@H]2[C@@H](O)c1cc(CC[C@@H](C)[C@H]2CC[C@H]3[C@@H]4[C@H](OC(C)=O)C[C@@H]5C[C@H](OC(C)=O)CC[C@]5(C)[C@H]4C[C@H](OC(C)=O)[C@]23C)nc2ccc(OC)cc12
8.7

Answer with the recorded selectivity ratio for the compound listed here: C=C[C@H]1CN2CC[C@H]1C[C@@H]2[C@@H](O)c1cc(CC[C@@H](C)[C@H]2CC[C@H]3[C@@H]4[C@H](OC(C)=O)[C@H](OC(C)=O)[C@@H]5C[C@H](OC(C)=O)CC[C@]5(C)[C@H]4CC[C@]23C)nc2ccccc12
8.3
